Experiment: chemical genetic growth profiling, strain panel (AID 1159580);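 note: tested at 20 µM; growth read once vehicle control cultures reached saturation at 30 °C; 1 = growth at the plate median or of vehicle wells; lower values mean less growth of the strain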
Settings: S. cerevisiae deletion strains, growth OD, locus YBR009C, strain hhf1, active compounds read low
The whole screen tested about 5,500 compounds, of which about 2,000 (36%) were called active. About 18% were inconclusive and are not listed. This is one part of the list.
Could you please report measured normalized growth for the items listed next?

Consider the compound shown here: NC(=NCCC[C@H](N)C(=O)O)NC(CCC(=O)O)C(=O)O (stereo partly specified) What is its recorded normalized growth? 1 (inactive)

Further, for CC(C)NCC(O)c1ccc2ccccc2c1 (stereo unspecified) ? 0.985 (inactive)

Further, for O=C(O)CCCCC1CCSS1 (stereo unspecified) ? 0.933 (inactive)

Further, for CCOC(=O)c1oc2c(OC)c(O)cc(O)c2c(=O)c1-c1cc(OC)c(OC)c(OC)c1 ? 0.972 (inactive)

Further, for CC(C)(C)NCC(O)c1ccccc1Cl (stereo unspecified) ? 0.972 (inactive)

Further, for COc1cc(OC)c2c(=O)c(-c3ccccc3)c(C)oc2c1OC ? 0.953 (inactive)
